Biological target: CDC7/DBF4 (Homo sapiens)
Sequence (O00311 whole entry): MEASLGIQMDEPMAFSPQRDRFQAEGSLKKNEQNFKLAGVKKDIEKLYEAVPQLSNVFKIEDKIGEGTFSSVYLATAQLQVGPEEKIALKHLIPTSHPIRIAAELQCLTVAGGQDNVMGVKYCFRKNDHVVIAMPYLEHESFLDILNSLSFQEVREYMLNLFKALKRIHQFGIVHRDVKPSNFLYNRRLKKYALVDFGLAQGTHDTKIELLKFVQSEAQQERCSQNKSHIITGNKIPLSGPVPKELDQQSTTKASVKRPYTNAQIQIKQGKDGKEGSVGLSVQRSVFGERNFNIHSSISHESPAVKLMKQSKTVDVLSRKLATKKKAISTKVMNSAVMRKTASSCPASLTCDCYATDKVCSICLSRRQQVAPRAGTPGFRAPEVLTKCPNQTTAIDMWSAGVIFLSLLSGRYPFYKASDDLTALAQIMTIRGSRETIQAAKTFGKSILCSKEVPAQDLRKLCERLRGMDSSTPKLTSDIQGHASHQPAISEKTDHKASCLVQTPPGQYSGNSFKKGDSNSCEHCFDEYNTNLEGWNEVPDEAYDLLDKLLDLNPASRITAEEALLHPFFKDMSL
Sequence (Q9UBU7 whole entry partner): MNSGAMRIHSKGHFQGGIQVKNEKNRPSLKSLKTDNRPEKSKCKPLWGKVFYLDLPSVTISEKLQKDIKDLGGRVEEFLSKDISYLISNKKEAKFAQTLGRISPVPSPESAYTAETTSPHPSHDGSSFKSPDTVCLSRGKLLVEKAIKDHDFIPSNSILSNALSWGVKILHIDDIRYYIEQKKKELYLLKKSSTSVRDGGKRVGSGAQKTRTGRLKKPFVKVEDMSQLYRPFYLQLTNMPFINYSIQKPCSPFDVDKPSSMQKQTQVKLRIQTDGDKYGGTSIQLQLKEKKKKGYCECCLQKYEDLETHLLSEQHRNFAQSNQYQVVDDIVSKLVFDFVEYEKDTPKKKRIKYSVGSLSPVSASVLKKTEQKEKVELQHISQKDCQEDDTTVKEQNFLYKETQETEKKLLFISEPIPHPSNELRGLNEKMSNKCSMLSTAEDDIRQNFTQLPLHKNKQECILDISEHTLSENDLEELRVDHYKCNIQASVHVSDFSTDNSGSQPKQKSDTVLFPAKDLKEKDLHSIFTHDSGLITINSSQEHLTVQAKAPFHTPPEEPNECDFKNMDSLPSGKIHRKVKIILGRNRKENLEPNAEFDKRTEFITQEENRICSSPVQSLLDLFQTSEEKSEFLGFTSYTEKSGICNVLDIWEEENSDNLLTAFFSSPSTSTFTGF
Experiment: CDC7/DBF4 in vitro enzyme assay (Transcreener Kinase ADP-FP)
Details: ATP 5 μM, MCM2 400 nM, 60 minutes, read-out: IC50 against CDC7/DBF4 kinase
pIC50: −log10 of the molar value.
Result Type: pIC50

>>> value_reported("CC1(c2ncncc2F)NC(=O)c2cc(-c3cn[nH]c3)ccc21 (single isomer, unassigned; isomer 2) [Example 4, Hydrate]")
8.48
>>> value_reported("CC1(c2ncncc2F)NC(=O)c2cc(-c3cn[nH]c3)ccc21 (single isomer, unassigned) [Example 3]")
8.35
>>> value_reported("CC1(c2ncncc2F)NC(=O)c2cc(-c3cn[nH]c3)ccc21 (single isomer, unassigned; isomer 2) [Example 2]")
8.43

----------
Test: Antitumor efficacy in human colorectal carcinoma SW620 mouse xenograft model
Type: in vivo
Conditions: female, athymic Balb/c nude, mouse, in vivo, po; BID orally for 2 weeks, tumor-bearing nude mice; read-out: maximum tolerated dose
Method: The in vivo anticancer activity of Example 4 is studied in human colorectal adenocarcinoma cell line SW620 mouse xenograft tumor model which is predicted to be sensitive based on in vitro cell counting proliferative assay data described above. […] Tumor volume and body weight are measured 3 times a week in a blinded manner. […] The animal behavior and animal health are monitored twice a day during dosing period. […]
Result Type: MTD at 2 weeks

>>> value_reported("CC1(c2ncncc2F)NC(=O)c2cc(-c3cn[nH]c3)ccc21 (single isomer, unassigned; isomer 2) [Example 4, Hydrate]")
"31.2 mg/kg"

----------
Tested on: phosphorylated MCM2 at Serine 53 (pMCM2-S53) in H1299 cells
Assay: Acumen imaging assay for detection of phosphorylated MCM2 in H1299 cells
Assay type: cell-based
Settings: 4 hours treatment, read-out: IC50, inhibition of pMCM2-S53
Result Type: IC50 (nM)

>>> value_reported("CC1(c2ncncc2F)NC(=O)c2cc(-c3cn[nH]c3)ccc21 (single isomer, unassigned)")
290
